- MEASUREMENT PROTOCOL: yeast display, Sf9 membrane polyspecificity reagent, FACS + sequencing; frameworks hold sequencing errors
RESULT TYPE: polyreactivity (PSR sort gate)

Example results:
SEQ TEXT | polyreactivity (PSR sort gate)
QVQLVESGGGLVQAGGSLRLSCAASGSMFEGYAMGRYLQAPGKVRELVAAMTWSSGSTYYADSVKGRFTISRDNAKNTVYLQMNSLKPEETAVYSCAVDGGDFSSYGYWGQGTQVTVSS | low polyreactivity
QVQLVESGGGLVQAGGSLRLSCAASGFIFSTYAMGWYRQAPGKERELVAAITRTGTRTYYADSVKGRFTISRDNAKNTVYLQMNSLKPEDTAVYYCAARAGGEAYGSRYGYWGQGTQVTVSS | high polyreactivity
QVQLVESGGGLVQAGGSLRLSCAASGFTFYYYAMGWYRQAPGKERELVATISSSGGSTHYADSVKGRFTISRDNAKNTVYLQMNSLKPEDTAVYYCAADSYWDQSHIRDYWGQGTQVTVSS | low polyreactivity
QVQLVESGGGLVQAGGSLRLSCAASGSIFDYNPMGWYTQAPGKERELVADITSGGSTYYADSVKGRFTISRDNAKNTVYLQMNSLKPEDTAVYYCNADDAVEYSYGGGTEFYYWGQGTQVSVSS | low polyreactivity
QVQLVESGGGLVQAGGSLRLSCAASGRSFKRYDMGGYIQAPGKERELVAAITGTGGSTYYADSVKGRFTISRDNAKNTVYLQMNSLKPEDPADYYCAARLYNTYSGFAFGYWGQGTQVTVSS | high polyreactivity
QVQLVESGGGLVQAGGSLRLSCAASGRTFKRNAMGWYRQAPGKERELVAAISSDGRTNYADSVKGRFTISRDNAKNTVYLQMNSLKPEDTAVYYCAASYVLSYGTYYYWGQGTQVTVSS | low polyreactivity
QVQLVESGGGLVQAGGSLRLSCAASGNIFVRYAMGWYRQAPGKEREFVAAISSSGGSTRYADSVKGRFTISRDNAKNTVYLQMNSLKPEDTAVYYCAATRVARHGSPMYYWGQGTQVTVSS | high polyreactivity
QVQLDESGGGLVQAGGSLRLSCAASGRTFGVYAMGWYRQAPGKERELVAAIRWSGGGTYYADSVKVRFTISRDNAKNTVYLQMNSLKPEDTAVYYCAATLENSPYTRYTDMYYWGQGTQVTVSS | low polyreactivity
QVQLVESGGGLVQAGGSLRLSCAASGIIFRLNTMGWYRPAPGTERELVAAITSGGSTHYADSVKGRFTISRDNAKNTVYLQRISLNPEDTAVYYCAAGHRAKYWAWHFYYPGDYWGQGTQVTVSS | low polyreactivity
QVQLVESGGGLVQAGGSLRLSCAASGRIYRYYAMGWYRQAPGKERELVAAITRSGGTTYYADSVKGRFTISRDNAKYTVYLQMNSLKPEDTAVYYCNAGVGQKYDYWGQVTQVTVSS | high polyreactivity

Input QVQLVESGGGLVQAGGSLRLSCAASGSIFYLYAMGWYRQAPGKERELVAAITSGDSTTYADSVKGRFTISRDNAKNTVYLQMNSLKPEDTAVYYCAADWPGLVGYHNSAENDYWGQGTQVTVSS . Output polyreactivity (PSR sort gate): low polyreactivity

Hey, just so you know, these numbers are from the nanobody polyreactivity screen of Harvey et al. (2022).
